Target: Msn1 (UniProt P22148)
Sequence: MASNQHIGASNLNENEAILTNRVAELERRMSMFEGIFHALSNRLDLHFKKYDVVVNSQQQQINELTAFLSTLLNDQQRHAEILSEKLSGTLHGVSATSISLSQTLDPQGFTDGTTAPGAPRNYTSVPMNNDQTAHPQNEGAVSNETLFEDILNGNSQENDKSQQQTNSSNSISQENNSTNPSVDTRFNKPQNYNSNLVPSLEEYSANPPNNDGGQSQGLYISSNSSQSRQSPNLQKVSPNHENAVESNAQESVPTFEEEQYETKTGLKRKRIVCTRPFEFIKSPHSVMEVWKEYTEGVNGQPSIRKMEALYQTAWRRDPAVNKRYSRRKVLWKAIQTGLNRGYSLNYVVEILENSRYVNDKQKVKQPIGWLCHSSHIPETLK
Assay: PBM E-score (8-mer binding enrichment) (E-score (-0.5 to 0.5)); higher = stronger / more preferred TF binding
Conditions: protein concentration: 200 nM; construct: GST-full length
In all, about 33,000 sequences were measured (“E-score (-0.5 to 0.5)”: median about -0.013, highest 2% from about 0.3 on). Only a selection was taken, and the highest values are over-represented in it overall.
Would you mind telling me the reported PBM E-score of each entry?

Example entries begin here.
>  <polymer sequence>
AACATAGA

>  <PBM E-score>
-0.021

$$$$
>  <polymer sequence>
AGTCTCCG

>  <PBM E-score>
0.159

$$$$
>  <polymer sequence>
AATAATAA

>  <PBM E-score>
0.132

$$$$
>  <polymer sequence>
GACACATA

>  <PBM E-score>
0.361

$$$$
>  <polymer sequence>
AATAATAG

>  <PBM E-score>
-0.0638

$$$$
>  <polymer sequence>
ATAACAAT

>  <PBM E-score>
0.00977

$$$$

Parameters: items (list). Returns: PBM E-score for each item.
1. CCCTAGCA
2. ATGACAGC
3. AAATATGA
4. ACGTGAAA
5. ACGTCGCT

Result:
1. -0.119
2. 0.149
3. 0.154
4. 0.119
5. -0.211
